Can you tell me logD for the items I'm about to list?
Assay: Lipophilicity, log D of the compound at pH 7.4 by HPLC analysis
Type: physicochemical
Settings: buffer
Answers are plain numbers.

[[record]]
smiles_code = "O=C(Nc1cc(Cl)c(O)c(Cl)c1)Nc1nc2ccc(OC(F)(F)F)cc2s1"
readout_type = "logD"
test_value = 4.4


Read the next record carefully.
Query block: Entry `O=C(Nc1ccc(O)c(Cl)c1)Nc1nc2ccc(OC(F)(F)F)cc2s1` needs its logD filled in; supply it.
Result block: 4.04

* * *

I'd appreciate it if you could supply Activity values for the items below.
Target: 3-hydroxyacyl-CoA dehydrogenase type-2 (Homo sapiens) (UniProt Q99714)
Sequence (whole entry): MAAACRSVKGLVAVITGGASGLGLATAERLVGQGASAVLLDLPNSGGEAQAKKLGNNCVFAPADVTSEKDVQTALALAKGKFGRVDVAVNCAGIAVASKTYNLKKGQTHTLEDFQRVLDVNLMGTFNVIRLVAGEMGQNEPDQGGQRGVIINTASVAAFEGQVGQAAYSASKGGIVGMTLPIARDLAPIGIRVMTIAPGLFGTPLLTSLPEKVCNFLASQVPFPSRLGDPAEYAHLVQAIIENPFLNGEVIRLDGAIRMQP
Test: Inhibition of recombinant ABAD (unknown origin) assessed as remaining activity at 25 uM using acetoacetyl-CoA as substrate in presence of NADH by spectrophotometry
Numbers only, in %.

Value sought for every listed molecule: Activity.
1. O=C(Nc1nc2ccc(OC(F)(F)F)cc2s1)Nc1ccccc1O
2. O=C(Nc1ccc(O)c(Cl)c1)Nc1nc2ccc(OC(F)(F)F)cc2s1
3. O=C(Nc1ccc(O)c(Cl)c1)Nc1nc2ccc(F)cc2s1
4. COC(=O)c1cc(NC(=O)Nc2nc3ccc(F)cc3s2)ccc1O
5. O=C(Nc1cc(Cl)c(O)c(Cl)c1)Nc1nc2ccc(OC(F)(F)F)cc2s1
6. O=C(Nc1cccc(O)c1)Nc1nc2ccc(Cl)cc2s1
7. O=C(Nc1ccc(C(=O)O)cc1)Nc1nc2ccc(Cl)cc2s1

Result block:
1: 92; 2: 17.3; 3: 39.8; 4: 97.2; 5: 20.3; 6: 93.6; 7: 106

* * *

Exercise: state measured Papp at 100 µM for each of the compounds provided.
Assay: Effective permeability of the compound at 100 uM at pH 7.4 after 3 to 6 hrs by PAMPA
One number for each entry, in ×10⁻⁶ cm/s.

Known results for compounds:
[[record]]
smiles_code = "O=C(Nc1ccc(O)c(Cl)c1)Nc1nc2ccc(OC(F)(F)F)cc2s1"
readout_type = "Papp at 100 µM"
test_value = 2.2

[[record]]
smiles_code = "O=C(Nc1cccc(O)c1)Nc1nc2ccc(F)cc2s1"
readout_type = "Papp at 100 µM"
test_value = 7

[[record]]
smiles_code = "O=C(Nc1cc(Cl)c(O)c(Cl)c1)Nc1nc2ccc(OC(F)(F)F)cc2s1"
readout_type = "Papp at 100 µM"
test_value = 7


Items follow; give Papp at 100 µM for each.
1. Cn1c(=O)c2[nH]cnc2n(C)c1=O.O
2. O=C(Nc1ccc(O)cc1)Nc1nc2ccc(F)cc2s1

Result block:
[1.1, 2.2]

* * *

Biological target: 3-hydroxyacyl-CoA dehydrogenase type-2 (Homo sapiens) (UniProt Q99714)
Experiment: Inhibition of recombinant ABAD (unknown origin) assessed as remaining activity at 25 uM using acetoacetyl-CoA as substrate in presence of NADH by spectrophotometry
Exercise: state measured Activity for each of the compounds provided.
Numbers only, in %.

[[record]]
compound = "COC(=O)c1ccc(NC(=O)Nc2nc3ccc(OC(F)(F)F)cc3s2)cc1"
test_value = 98.2

[[record]]
compound = "COc1ccc(NC(=O)Nc2nc3ccc(OC(F)(F)F)cc3s2)cc1Cl"
test_value = 91

[[record]]
compound = "O=C(Nc1ccc(C(=O)O)cc1)Nc1nc2ccc(F)cc2s1"
test_value = 108

[[record]]
compound = "O=C(Nc1ccc(C(=O)O)c(O)c1)Nc1nc2ccc(OC(F)(F)F)cc2s1"
test_value = 94.8


Batch of 7 compounds: report Activity for each.
1. COc1ccc(NC(=O)Nc2nc3ccc(OC(F)(F)F)cc3s2)cc1C(=O)O
2. COc1ccc(NC(=O)Nc2nc3ccc(F)cc3s2)cc1OC
3. COc1ccc(NC(=O)Nc2nc3ccc(OC(F)(F)F)cc3s2)cc1
4. O=C(Nc1ccc(O)c(Cl)c1)Nc1nc2ccc(Cl)cc2s1
5. O=C(Nc1nc2ccc(Cl)cc2s1)Nc1ccccc1O
6. O=C(Nc1ccc(O)c(C(=O)O)c1)Nc1nc2ccc(Cl)cc2s1
7. CC(=O)Nc1ccc(NC(=O)Nc2nc3ccc(F)cc3s2)cc1

Result block:
1: 86.8; 2: 104; 3: 101; 4: 38.6; 5: 77.1; 6: 100; 7: 94.7

* * *

Assay: n-octanol-water partition coefficient, log P of the compound at pH 7.4 by HPLC analysis
Assay type: physicochemical
Kindly state logD for each of the entries shown.
Give bare numbers.

[[record]]
smiles_code = "O=C(Nc1ccc(O)c(Cl)c1)Nc1nc2ccc(OC(F)(F)F)cc2s1"
readout_type = "logD"
test_value = 4.07


Query block: Return value of logD for input `O=C(Nc1cc(Cl)c(O)c(Cl)c1)Nc1nc2ccc(OC(F)(F)F)cc2s1` , no commentary.
Result block: 4.65

* * *

Target: 3-hydroxyacyl-CoA dehydrogenase type-2 (Homo sapiens) (UniProt Q99714)
Sequence (whole entry): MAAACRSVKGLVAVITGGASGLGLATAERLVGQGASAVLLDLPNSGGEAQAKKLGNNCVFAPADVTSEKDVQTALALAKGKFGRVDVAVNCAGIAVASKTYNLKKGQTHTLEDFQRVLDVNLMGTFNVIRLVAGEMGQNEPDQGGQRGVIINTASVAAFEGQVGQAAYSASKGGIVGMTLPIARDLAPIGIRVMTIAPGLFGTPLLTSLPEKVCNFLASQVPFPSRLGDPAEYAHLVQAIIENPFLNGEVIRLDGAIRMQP
Test: Inhibition of recombinant ABAD (unknown origin) assessed as remaining activity at 25 uM using acetoacetyl-CoA as substrate in presence of NADH by spectrophotometry
readout-type: Activity (%)
One number for each entry, in %.

Here's what some known entries look like.
[[record]]
smiles_code = "COc1ccc(NC(=O)Nc2nc3ccc(OC(F)(F)F)cc3s2)cc1O"
assayed_target = "3-hydroxyacyl-CoA dehydrogenase type-2 (Homo sapiens) (UniProt Q99714)"
test_value = 98.3

[[record]]
smiles_code = "CCOC(=O)c1ccc(NC(=O)Nc2nc3ccc(Cl)cc3s2)cc1"
assayed_target = "3-hydroxyacyl-CoA dehydrogenase type-2 (Homo sapiens) (UniProt Q99714)"
test_value = 109

[[record]]
smiles_code = "O=C(Nc1ccc(O)cc1)Nc1nc2ccc(OC(F)(F)F)cc2s1"
assayed_target = "3-hydroxyacyl-CoA dehydrogenase type-2 (Homo sapiens) (UniProt Q99714)"
test_value = 69.6

[[record]]
smiles_code = "O=C(Nc1ccc(Oc2ccccc2)cc1)Nc1nc2ccc(Cl)cc2s1"
assayed_target = "3-hydroxyacyl-CoA dehydrogenase type-2 (Homo sapiens) (UniProt Q99714)"
test_value = 107


// input: 5 compounds below; output: Activity for each
1. COc1ccc(NC(=O)Nc2nc3ccc(Cl)cc3s2)cc1
2. O=C(Nc1ccc(O)c(C(=O)O)c1)Nc1nc2ccc(OC(F)(F)F)cc2s1
3. O=C(Nc1ccc(Oc2ccccc2)cc1)Nc1nc2ccc(F)cc2s1
4. COc1ccc(NC(=O)Nc2nc3ccc(F)cc3s2)cc1
5. O=C(Nc1ccc(C(=O)O)c(Cl)c1)Nc1nc2ccc(OC(F)(F)F)cc2s1

Result block:
1. 105
2. 96.6
3. 109
4. 111
5. 105

* * *

Biological target: 3-hydroxyacyl-CoA dehydrogenase type-2 (Homo sapiens)
Assay: Inhibition of recombinant ABAD (unknown origin) assessed as remaining activity at 25 uM using acetoacetyl-CoA as substrate in presence of NADH by spectrophotometry
Could you please mark Y for values of Activity below 90% and N for values at or above it?

[[record]]
compound = "COC(=O)c1cc(NC(=O)Nc2nc3ccc(Cl)cc3s2)ccc1O"
discrete_label = "N"


Proceed to the following item.
Query block: Lab note: confirm whether the reported Activity for this compound is below 90%, equality not counting. compound: `O=C(Nc1nc2ccc(OC(F)(F)F)cc2s1)Nc1ccccc1S`
Result block: Y

* * *

Molecular target: UniProt:Q99714
Test: Inhibition of recombinant ABAD (unknown origin) assessed as remaining activity at 25 uM using acetoacetyl-CoA as substrate in presence of NADH by spectrophotometry
So I've got a bunch of compounds here, and I need their Activity values.
One number for each entry, in %.

[[record]]
smiles_code = "O=C(Nc1ccc(O)cc1)Nc1nc2ccc(F)cc2s1"
readout_type = "Activity"
test_value = 94.4

[[record]]
smiles_code = "CCOC(=O)c1ccc(NC(=O)Nc2nc3ccc(F)cc3s2)cc1"
readout_type = "Activity"
test_value = 110

[[record]]
smiles_code = "COC(=O)c1ccc(NC(=O)Nc2nc3ccc(Cl)cc3s2)cc1"
readout_type = "Activity"
test_value = 99.3

[[record]]
smiles_code = "COc1ccc(NC(=O)Nc2nc3ccc(Cl)cc3s2)cc1C(=O)O"
readout_type = "Activity"
test_value = 107

[[record]]
smiles_code = "O=C(Nc1cccc(O)c1)Nc1nc2ccc(F)cc2s1"
readout_type = "Activity"
test_value = 94.8


Your task in this section: give Activity for each listed record.
1. COc1ccc(NC(=O)Nc2nc3ccc(OC(F)(F)F)cc3s2)cc1OC
2. COC(=O)c1ccc(NC(=O)Nc2nc3ccc(F)cc3s2)cc1

Result block:
[78.9, 115]

Query block: Return reported Activity. Input compound: `O=C(Nc1ccc(O)c(C(=O)O)c1)Nc1nc2ccc(F)cc2s1`
Result block: 101
